# Tested on: Staphylococcus epidermidis
# PROTOCOL_TEXT: Antimicrobial activity against extended spectrum beta-lactamases-producing methicillin-sensitive Staphylococcus epidermidis 10-13 after 18-24 hrs by two-fold serial dilution method
# Type: functional
ASSAY_METRIC: MIC (µg/mL)
One number for each entry, in µg/mL.

Here are 3 compounds. What values of MIC were reported for them?
1. COc1cc(CO/N=C2\CN(c3nc4c(cc3F)c(=O)c(C(=O)O)cn4C3CC3)CC2CN)ccc1OCc1ccccc1.CS(=O)(=O)O (racemic)
2. COc1cccc(CO/N=C2\CN(c3nc4c(cc3F)c(=O)c(C(=O)O)cn4C3CC3)CC2CN)c1OC.CS(=O)(=O)O (racemic)
3. COc1cc(CO/N=C2\CN(c3nc4c(cc3F)c(=O)c(C(=O)O)cn4C3CC3)CC2CN)cc(OC)c1OC.CS(=O)(=O)O (racemic)

Resp:
1: 2; 2: 0.06; 3: 2

---

# Tested on: Escherichia coli
# PROTOCOL_TEXT: Antimicrobial activity against extended spectrum beta-lactamases-producing Escherichia coli 10-3 after 18-24 hrs by two-fold serial dilution method
# Type: functional
ASSAY_METRIC: MIC

# annotated cases, reported MIC shown
COc1cc(Br)c(CO/N=C2\CN(c3nc4c(cc3F)c(=O)c(C(=O)O)cn4C3CC3)CC2CN)cc1OC.CS(=O)(=O)O (racemic) : > 128 mg/L
COc1ccc(CO/N=C2\CN(c3nc4c(cc3F)c(=O)c(C(=O)O)cn4C3CC3)CC2CN)cc1OC.CS(=O)(=O)O (racemic) : 16 mg/L

// below: MIC requested for another compound
Req: Hello, please tell me recorded MIC for this one: COc1cc(CO/N=C2\CN(c3nc4c(cc3F)c(=O)c(C(=O)O)cn4C3CC3)CC2CN)ccc1OC(F)F.CS(=O)(=O)O (racemic)
Resp: > 128 mg/L

---

# System: Escherichia coli
# PROTOCOL_TEXT: Antimicrobial activity against extended spectrum beta-lactamases-producing Escherichia coli 10-3 after 18-24 hrs by two-fold serial dilution method
# Type: functional
ASSAY_METRIC: MIC

# annotated cases, reported MIC shown
CS(=O)(=O)O.NCC1CN(c2nc3c(cc2F)c(=O)c(C(=O)O)cn3C2CC2)C/C1=N\OCc1ccc(OCc2ccccc2)cc1 (racemic) : > 128 µg/mL
COc1cc(CO/N=C2\CN(c3nc4c(cc3F)c(=O)c(C(=O)O)cn4C3CC3)CC2CN)c([N+](=O)[O-])cc1OC.CS(=O)(=O)O (racemic) : > 128 µg/mL

Req: Hello, please tell me recorded MIC for this one: COc1cc(CO/N=C2\CN(c3nc4c(cc3F)c(=O)c(C(=O)O)cn4C3CC3)CC2CN)ccc1OCc1ccccc1.CS(=O)(=O)O (racemic)
Resp: > 128 µg/mL

---

# Tested on: Escherichia coli
# PROTOCOL_TEXT: Antimicrobial activity against Escherichia coli ATCC 25922 after 18-24 hrs by two-fold serial dilution method
# Assay type: functional
ASSAY_METRIC: MIC (µg/mL)
Numbers only, in µg/mL.

# annotated cases, reported MIC shown
COc1cccc(OC)c1CO/N=C1\CN(c2nc3c(cc2F)c(=O)c(C(=O)O)cn3C2CC2)CC1CN.CS(=O)(=O)O (racemic) : 0.25
COc1ccc(CO/N=C2\CN(c3nc4c(cc3F)c(=O)c(C(=O)O)cn4C3CC3)CC2CN)c(Cl)c1OC.CS(=O)(=O)O (racemic) : 0.25
COc1cc(F)c(CO/N=C2\CN(c3nc4c(cc3F)c(=O)c(C(=O)O)cn4C3CC3)CC2CN)cc1OC.CS(=O)(=O)O (racemic) : 0.125

// below: MIC requested for another compound
Req: Hello, please tell me recorded MIC for this one: CS(=O)(=O)O.NCC1CN(c2nc3c(cc2F)c(=O)c(C(=O)O)cn3C2CC2)C/C1=N\OCc1cc2c(cc1[N+](=O)[O-])OCO2 (racemic)
Resp: 0.008
